Numbers sourced from patent US20230278972A1.

# Test system: Ryegrass, Italian (Italian ryegrass, Lolium multiflorum)
# measurement_protocol: Test A postemergence, Ryegrass, Italian
# Type: in vivo
# applied_conditions: Lolium multiflorum, post-emergence, 240 h; Postemergence, 125 g ai/ha; visual injury approx. 10 days; 0 to 100 scale (0 no effect, 100 complete control); read-out: Plant response rating, Ryegrass, Italian
measured_quantity: pest or weed control at 125 g/ha

* Cc1c(NS(=O)(=O)C(F)(F)F)cc(C(=O)N(C)C)c(C)c1F [Compound 128] | 80%
* Cc1cc(Cl)c(NS(=O)(=O)C(F)(F)F)cc1C(=O)N1CCCCC1 [Compound 18] | 10%
* Cc1cc(C)c(C2=NOC3CCOCC23)cc1NS(=O)(=O)C(F)(F)F (stereo not shown) [Compound 120] | 90%
* Cc1cc(C)c(N(COC(=O)C(C)(C)C)S(=O)(=O)C(F)(F)F)cc1C1=NO[C@@H]2CCC[C@H]12 [Compound 100] | 20%

----------
# Test system: soybean (Glycine max)
# measurement_protocol: Test A1 postemergence, soybean
# Assay type: in vivo
# applied_conditions: Postemergence, 125 g ai/ha; 0 to 100 scale
measured_quantity: Plant response rating, Soybean

- CCOC(=O)N(c1cc(C(=O)N2C[C@@H](C)O[C@@H](C)C2)c(C)c(C)c1C)S(=O)(=O)C(F)(F)F [Compound 332]: 100
- Cc1cc(C)c(-n2nccc(C)c2=O)cc1NS(=O)(=O)C(F)(F)F [Compound 281]: 60
- Cc1c(NS(=O)(=O)C(F)(F)F)cc(C(=O)N(C)C)c(C)c1Cl [Compound 287]: 50
- COc1cc(C)c(NS(=O)(=O)C(F)(F)F)cc1C1=NOC2CCCC12 (centres unmarked) [Compound 312]: 20
- Cc1c(C(=O)N2CCCCC2)cc(NS(=O)(=O)C(F)(F)F)c(Cl)c1F [Compound 333]: 80

----------
# System: corn (Zea mays)
# measurement_protocol: Test A postemergence, corn
# Assay type: in vivo
# applied_conditions: Postemergence, 125 g ai/ha; visual injury approx. 10 days; 0 to 100 scale (0 no effect, 100 complete control)
The following compounds are shown together with reported Plant response rating, Corn values.
measured_quantity: Plant response rating, Corn

• Cc1cc(C)c(N(S(=O)(=O)C(F)(F)F)S(=O)(=O)C(F)(F)F)cc1C1=NOC2(CCC3(CC2)OCCO3)C1 = 0
• CCn1nc(Cl)cc(-c2cc(NS(=O)(=O)C(F)(F)F)c(C)cc2C)c1=O = 0
• CSC1CCCN(C(=O)c2cc(NS(=O)(=O)C(F)(F)F)c(C)cc2C)C1 (stereo not shown) = 30
• Cc1cc(C)c(N(S(C)(=O)=O)S(=O)(=O)C(F)(F)F)cc1-c1cc(C(C)C)nn(C)c1=O = 0

----------
# Tested on: Ryegrass, Italian (Italian ryegrass, Lolium multiflorum)
# measurement_protocol: Test A postemergence, Ryegrass, Italian
# Type: in vivo
# applied_conditions: Postemergence, 1000 g ai/ha; visual injury, 0 to 100 scale (0 no effect, 100 complete control), approx. 10 days
measured_quantity: Plant response rating, Ryegrass, Italian

• Cc1ccc(C(=O)N2CCC(C)CC2)cc1NS(=O)(=O)C(F)(F)F [Compound 7] = 90
• Cc1ccc(C(=O)N2CCC(C(C)(C)C)CC2)cc1NS(=O)(=O)C(F)(F)F [Compound 262] = 20
• COc1cc(Cl)c(NS(=O)(=O)C(F)(F)F)cc1C(=O)N1CCOCC1 [Compound 258] = 70
• Cc1cc(C)c(C(=O)N2CCSCC2)cc1NS(=O)(=O)C(F)(F)F [Compound 12] = 90

----------
The following compounds are shown together with reported Plant response rating, Galium values.
# Tested on: galium (catchweed bedstraw, Galium aparine)
# measurement_protocol: Test A1 postemergence, galium
# Format: in vivo
# applied_conditions: Postemergence, 125 g ai/ha; 0 to 100 scale (0 no effect, 100 complete control); 10 days
measured_quantity: Plant response rating, Galium

- COc1cccc2c1C(=O)N(c1cc(N(COC(=O)C(C)(C)C)S(=O)(=O)Cl)c(C)cc1C)C2: 100
- Cc1cc(C)c(N(COC(=O)C(C)(C)C)S(=O)(=O)C(F)(F)F)cc1N1CCC2(CCC(F)(F)CC2)C1=O: 100
- Cc1cc(Cl)c(NS(=O)(=O)C(F)(F)F)cc1N1CC2(CCCCC2)OC1=O: 100
- Cc1cc(C)c(N2CC3(CCCCC3)CC2=O)cc1NS(=O)(=O)C(F)(F)F: 80

----------
# System: blackgrass (Alopecurus myosuroides)
# measurement_protocol: Test A postemergence, blackgrass
# Type: in vivo
# applied_conditions: Postemergence, 125 g ai/ha; visual injury approx. 10 days; 0 to 100 scale (0 no effect, 100 complete control)
measured_quantity: Plant response rating, Blackgrass

- Cc1cc(Cl)c(NS(=O)(=O)C(F)(F)F)cc1C(=O)N1CCC(C#N)CC1: 0
- Cc1cc(C)c(N(S(C)(=O)=O)S(=O)(=O)C(F)(F)F)cc1-c1cc(C(C)C)nn(C)c1=O: 0
- COc1c(Cl)nn(C)c(=O)c1-c1cc(NS(=O)(=O)C(F)(F)F)c(C)cc1C: 0
- Cc1cc(C)c(-c2ccnn(C(C)C)c2=O)cc1NS(=O)(=O)C(F)(F)F: 0
- CO[C@@H]1CCCN(C(=O)c2cc(NS(=O)(=O)C(F)(F)F)c(C)cc2C)C1: 20
- COC1(OC)CCN(C(=O)c2cc(NS(=O)(=O)C(F)(F)F)c(C)cc2C)CC1: 20
- Cc1cc(C)c(N(S(=O)(=O)C(F)(F)F)S(=O)(=O)C(F)(F)F)cc1C1=NOC2(CCC(C)(C)CC2)C1: 0
- Cc1ccc(=O)n(-c2cc(NS(=O)(=O)C(F)(F)F)c(C)cc2C)n1: 0

----------
# System: galium (catchweed bedstraw, Galium aparine)
# measurement_protocol: Test A1 postemergence, galium
# Format: in vivo
# applied_conditions: 31 g ai/ha, postemergence; 0 to 100 scale (0 no effect, 100 complete control)
measured_quantity: Galium plant response rating

* Cc1cc(C)c(N(COC(=O)C(C)(C)C)S(=O)(=O)C(F)(F)F)cc1N1CCC2(CCC(C)CC2)C1=O (stereo not drawn) | 50
* C#CCN(C)C(=O)c1cc(N(COC(=O)C(C)(C)C)S(=O)(=O)C(F)(F)F)c(C)c(C)c1C | 70
* CCOc1cccc2c1C(=O)N(c1cc(N(COC(=O)C(C)(C)C)S(=O)(=O)Cl)c(C)cc1C)C2 | 60
* Cc1cc(C)c(N2CC3(CCCCC3)CC2=O)cc1NS(=O)(=O)C(F)(F)F | 50
* Cc1c(C2=NOC3(CCCC3)C2)cc(N(COC(=O)C(C)(C)C)S(=O)(=O)C(F)(F)F)c(C)c1C | 0
* Cc1cc(C)c(N2CCC3(CCC(C)CC3)C2=O)cc1NS(=O)(=O)C(F)(F)F (stereo not drawn) | 70
* Cc1cc(C)c(N2Cc3cccc(Br)c3C2=O)cc1NS(=O)(=O)Cl | 60
* Cc1cc(C)c(C2=NOC3OCCCC23)cc1NS(=O)(=O)C(F)(F)F (stereo not drawn) | 60
* Cc1cc(C)c(C2=NOC(C(C)C)C2)cc1NS(=O)(=O)C(F)(F)F (stereo not drawn) | 0

----------
The following compounds are shown together with reported Plant response rating, Foxtail, Giant values.
# System: Foxtail, Giant (giant foxtail, Setaria faberi)
# measurement_protocol: Test A1 preemergence, Foxtail, Giant
# Type: in vivo
# applied_conditions: 31 g ai/ha, 0 to 100 scale (0 no effect, 100 complete control)
measured_quantity: Plant response rating, Foxtail, Giant

• COC1CCN(C(=O)c2cc(NS(=O)(=O)C(F)(F)F)c(C)c(C)c2C)CC1 [Compound 367] = 90
• Cc1cc(C2CC2)c(C2=NOC3CCCC23)cc1NS(=O)(=O)C(F)(F)F (stereo not drawn) [Compound 307] = 50
• Cc1c(NS(=O)(=O)C(F)(F)F)cc(C(=O)N2CCC(F)CC2)c(C)c1C [Compound 358] = 80
• CCC1ON=C(c2cc(N(COC(=O)C(C)(C)C)S(=O)(=O)C(F)(F)F)c(C)cc2C)C1CC (stereo not drawn) [Compound 344] = 30
• Cc1c(NS(=O)(=O)C(F)(F)F)cc(C(=O)N2CC(C)OC(C)C2)c(C)c1C (stereo not drawn) [Compound 327] = 100
• Cc1c(C(=O)N2CCSCC2)cc(N(COC(=O)C(C)(C)C)S(=O)(=O)C(F)(F)F)c(C)c1C [Compound 285] = 40
• Cc1cc(C)c(-n2nccc(C)c2=O)cc1NS(=O)(=O)C(F)(F)F [Compound 281] = 0
• CCOC(=O)N(c1cc(C(=O)N2C[C@@H](C)O[C@H](C)C2)c(C)c(C)c1C)S(=O)(=O)C(F)(F)F (relative stereo) [Compound 374] = 50
• CCOc1cccc2c1C(=O)N(c1cc(N(COC(=O)C(C)(C)C)S(=O)(=O)Cl)c(C)cc1C)C2 [Compound 414] = 0
• Cc1cc(C)c(N(COC(=O)C(C)(C)C)S(=O)(=O)C(F)(F)F)cc1C1=NOC(C(C)C)C1 (stereo not drawn) [Compound 383] = 0
• C#CCN(C)C(=O)c1cc(N(COC(=O)C(C)(C)C)S(=O)(=O)C(F)(F)F)c(C)c(C)c1C [Compound 371] = 10
• COCC1CC(c2cc(N(COC(=O)C(C)(C)C)S(=O)(=O)C(F)(F)F)c(C)cc2C)=NO1 (stereo not drawn) [Compound 338] = 10
• Cc1c(C(=O)N2C[C@@H](C)O[C@H](C)C2)cc(N(COC(=O)C(C)(C)C)S(=O)(=O)C(F)(F)F)c(C)c1C (relative stereo) [Compound 373] = 0
• Cc1cc(C)c(N(COC(=O)C(C)(C)C)S(=O)(=O)C(F)(F)F)cc1N1CCC2(CCC(C(F)(F)F)CC2)C1=O (stereo not drawn) [Compound 403] = 0
• Cc1cc(C)c(N2CC3(CCCCC3)CC2=O)cc1NS(=O)(=O)C(F)(F)F [Compound 392] = 0
